- Tested on: SF-268
- PROTOCOL DESCRIPTION: Cytotoxicity against human SF268 cells after 72 hrs by XTT assay
- Type: functional, cell-based
- REPORTED CONDITIONS: SF-268, 72 h
Kindly state pIC50 for each of the entries shown.
One number for each entry, as −log10 of the molar value.

SAMPLE SMILES | pIC50
Clc1nnc(NCCCN2CCN(CCCNc3nnc(Cl)c4cc5ccccc5cc34)CC2)c2cc3ccccc3cc12 | 6.18

Batch request: pIC50 per item, same order as input.
1. NCCCN1CCN(CCCNc2nnc(Cl)c3cc4ccccc4cc23)CC1
2. CCCCNc1nnc(NCCCC)c2cc3ccccc3cc12
3. c1ccc(CCNc2nnc(NCCc3ccccc3)c3cc4ccccc4cc23)cc1

Result:
1. 4.90
2. 5.58
3. 5.58

Please state, for each entry, its recorded pIC50.
1. COc1cccc2c1C(=O)c1c(O)c3c(c(O)c1C2=O)C[C@@](O)(C(=O)CO)C[C@@H]3O[C@H]1C[C@H](N)[C@H](O)[C@H](C)O1
2. CCCCCNc1nnc(NCCCCC)c2cc3ccccc3cc12
3. CCCCNc1nnc(Cl)c2cc3ccccc3cc12

Result:
1. 6.66
2. 5.57
3. 4.06

Origin of the recorded values: ChEMBL document CHEMBL1177671
